Each item that follows carries a reported median log2 fold change.
Target: T1, USP38, Q8NB14
T1 chain: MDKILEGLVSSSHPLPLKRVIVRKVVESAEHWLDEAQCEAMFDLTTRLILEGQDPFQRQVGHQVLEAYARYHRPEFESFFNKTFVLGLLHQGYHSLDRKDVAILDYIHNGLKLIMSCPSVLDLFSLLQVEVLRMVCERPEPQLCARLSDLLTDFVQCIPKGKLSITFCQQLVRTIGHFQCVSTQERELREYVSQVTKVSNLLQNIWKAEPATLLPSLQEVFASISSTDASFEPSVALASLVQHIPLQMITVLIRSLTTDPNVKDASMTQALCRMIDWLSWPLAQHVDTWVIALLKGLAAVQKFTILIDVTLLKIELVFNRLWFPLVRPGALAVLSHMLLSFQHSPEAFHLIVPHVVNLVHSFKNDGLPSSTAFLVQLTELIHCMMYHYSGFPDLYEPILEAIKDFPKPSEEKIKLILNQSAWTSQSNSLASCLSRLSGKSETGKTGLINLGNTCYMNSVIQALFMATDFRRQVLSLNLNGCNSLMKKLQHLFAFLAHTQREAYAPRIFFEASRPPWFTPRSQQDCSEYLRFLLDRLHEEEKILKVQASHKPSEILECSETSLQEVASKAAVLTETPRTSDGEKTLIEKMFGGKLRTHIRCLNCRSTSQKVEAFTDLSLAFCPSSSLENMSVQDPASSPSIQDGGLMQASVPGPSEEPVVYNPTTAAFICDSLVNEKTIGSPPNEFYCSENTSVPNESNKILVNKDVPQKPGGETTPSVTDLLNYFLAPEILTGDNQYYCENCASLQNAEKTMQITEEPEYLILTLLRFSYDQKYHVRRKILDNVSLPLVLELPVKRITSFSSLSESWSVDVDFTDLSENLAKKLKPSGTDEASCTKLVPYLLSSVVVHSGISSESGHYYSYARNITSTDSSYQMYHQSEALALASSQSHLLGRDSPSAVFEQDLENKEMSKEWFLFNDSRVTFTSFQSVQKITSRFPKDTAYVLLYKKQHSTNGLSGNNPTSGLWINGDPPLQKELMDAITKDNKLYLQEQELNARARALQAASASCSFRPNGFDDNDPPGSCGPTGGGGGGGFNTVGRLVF
Test: median log2 fold change of GCK-ALFA target abundance (FLAG IP / Myc IP barcode read proportion) (log2 ratio); each designed protein is fused to an ALFA-tag nanobody in HEK293 cells to bring the named protein to FLAG-tagged glucokinase (GCK); Myc marks an untargeted standard; higher = target protein stabilised (more abundant)
Settings: target protein: 3xFLAG-MCP-GCK-ALFA reporter; HEK293 landing pad (RPLP)
REPORTED_ENDPOINT: median log2 fold change

• usp_38_diff_out_18_28_413 (protein) MREENRKRIEEMEKKADELIDEANEVATEGYLKYADDPSNEELLKAIRELMDAVGEAAAAVREARENIDDPEKVEEEEKRFEEAYEKAKKKIKEVKELIK = -0.0716
• usp_38_diff_out_14_54_125 (protein) MEELEKLLKEAEKALKEAEKALAAAEALLEAGGPLAEIRALLDAAARAIGAAGEALRKARALATDPEVKKKLEELRKRADELVDRYNELARRALEREAAA = -0.00832
• usp_38_diff_out_18_14_354 (protein) SEELREQTLSNLETLTADVEANTARLRRVVAALKDDPASARALLETRAQAMEGVIEYAERLEREAEEEGDEELLEAARRLRATAEAALAEIQALLAELDA = -0.0379
• usp_38_diff_out_17_26_231 (protein) SAEAARAKAEALLKELVAETDKALKEIDKLIKEGKFEEAEKLLDETVDKVTEKATEIFELAADDEALLDKANKTIGDIFDKLAARYKELQAARKAAKAAA = -0.439
• usp_38_diff_out_14_2_116 (protein) AVEEIKAATDATLATLAAATAALAELKKRVEADPSLAEEARAEAFAAWDAAADAVGALNRLMEANREHRAERKEATAKINAALTTLTAALTETLEAAAAA = -0.132
• usp_38_diff_out_18_121_250 (protein) DGEELLRRLREALRRAEEKLRELEELLERAEEVSLEELRAALDAAADALGEAAALLREARRRLGPEYREELEEAERRLDELVDRYTELGTRLFLLEAERQ = -0.109
• usp_38_diff_out_3_65_538 (protein) EVQKLLEEAQKLLDEATKIIDELKERVESDPTLTIDEVNEMLDKAADKIVAAGEKINEAKKLNPDEEQKKQIEELEKRLDEVIEKYREAAEYAFLRVAER = -0.281
• usp_38_diff_out_14_2_80 (protein) AEEKLKKATEETLKVLKEAIKKAKELKKEVEADPSLAEKAREELLKAWDKAGDAVGALNKLIEENKEAKETRKKATEEVNKAIDELTKEVLEALQTAAEA = -0.879
• usp_38_diff_out_18_14_327 (protein) SEELKEALLSNLKLLKEEVKKDTERTLKILEKLKGDPESARSLIDTRIQALEGVIKYAEEVAKMAKEEGDEELKKAAEELKKEAEEAKKKLEEKRKELEK = -0.444
• usp_38_diff_out_18_28_374 (protein) SEEEREELERRLRELEERLDELIDEYVELAERVYLEHPDDAEKLALLDAAADALGAAAYHLREARRLLREGGDPEEVERELEKAEEALEEAERLLEELKA = -0.302
• usp_38_diff_out_5_164_583 (protein) GVEEYLARLDAIKKETIEELDKLLEEAKKNPEKLEEYKKKITEITNKAINEMTKVTTEALEEFPEQAETILAHYSERIDELLKHYNEVMKELEKLKKELE = 0.0633
• usp_38_diff_out_4_12_553 (protein) AAEERQKALEKALAEMQKLHEETVKKLKELLEELKKTKKEEILKEAEKLANDALTKLAELTTKALELAETPEEQQAILDLYAQQVTEIVTLMQEAKEAMK = 0.201
• usp_38_diff_out_1_101_4 (protein) MEERLEKAKKEIEEALEEIIKIYEETAKAAKAAGDEALAERWKRFAEAMRTYRESLERTLEELREQDLESALAFAEAALEVTKSLLKEAKEEAEKAKKAL = -0.644
